# System: lipase AY 30
# ASSAY OVERVIEW: Effect of the solvent on lipase AY 30 catalyzed deacylation of SOP
# Type: biochemical, Candida cylindracea
# MEASUREMENT CONDITIONS: lipase AY 30, solvent as labelled, 200 mM butanol, 24 hrs; peak 21.4 min
ENDPOINT LABEL: SOA (%)

1) CCCCCC [hexane] = 79.3
2) CCCCC(=O)CC [3-heptanone] = 93.0
3) O=C1CCCCC1 [cyclohexanone] = 98.8
4) CC(C)=O [acetone] = 98.7
5) C1CCOC1 [THF, tetrahydrofuran] = 98.0
6) CCC(C)=O [butanone] = 98.9
7) Cc1ccccc1 [toluene] = 97.3
8) CCCCCCCCO [octanol] = 97.1
